Target: T1, HLA-A2/E7 (11-19) tetramer (human; HPV 16)
T1 construct: also called E7(11-19) peptide-MHC tetramer; E7 (11-19)-loaded tetramer
Experiment: tetramer flow cytometry; transfected 1:1 CD4+ and CD4+/CD8+ Jurkat-derived cells;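 note: cells transiently transfected with TCR plasmids, stained 48 h later with HLA-A*02:01 peptide-MHC tetramer plus anti-CD8 antibody, read by flow cytometry to assess CD8-independent tetramer binding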
Listed here are binders together with their documented % cells in E7 tet+/CD8+ quadrant.

[[record]]
binder = "TCR 45 (codon optimized, cysteine modified version) (TCR, V domains shown) V domain 1: GQQVMQIPQYQHVQEGEDFTTYCNSSTTLSNIQWYKQRPGGHPVFLIQLVKSGEVKKQKRLTFQFGEAKKNSSLHITATQTTDVGTYFCAGSSGAGSYQLTFGKGTKLSVIP V domain 2: GAGVSQSPSNKVTEKGKDVELRCDPISGHTALYWYRQRLGQGLEFLIYFQGNSAPDKSGLPSDRFSAERTGESVSTLTIQRTQQEDSAVYLCASSLYLGTTGELFFGEGSRLTVLE"
reported_measurement = "22.4%"

[[record]]
binder = "TCR 33 (codon optimized, cysteine modified version) (TCR, V domains shown) V domain 1: QKEVEQNSGPLSVPEGAIASLNCTYSDRGSQSFFWYRQYSGKSPELIMFIYSNGDKEDGRFTAQLNKASQYVSLLIRDSQPSDSATYLCAVNAHHTGGFKTIFGAGTRLFVKA V domain 2: EPEVTQTPSHQVTQMGQEVILRCVPISNHLYFYWYRQILGQKVEFLVSFYNNEISEKSEIFDDQFSVERPDGSNFTLKIRSTKLEDSAMYFCASTPRDTYEQYFGPGTRLTVTE"
reported_measurement = "22.6%"

[[record]]
binder = "TCR 35 (codon optimized, cysteine modified version) (TCR, V domains shown) V domain 1: KDQVFQPSTVASSEGAVVEIFCNHSVSNAYNFFWYLHFPGCAPRLLVKGSKPSQQGRYNMTYERFSSSLLILQVREADAAVYYCAVAGDYKLSFGAGTTVTVRA V domain 2: DSGVTQTPKHLITATGQRVTLRCSPRSGDLSVYWYQQSLDQGLQFLIQYYNGEERAKGNILERFSAQQFPDLHSELNLSSLELGDSALYFCASTTSGDSSYNEQFFGPGTRLTVLE"
reported_measurement = "14.5%"


Here is another binder to look at.
Recorded % cells in E7 tet+/CD8+ quadrant (binder TCR 39 (codon optimized, cysteine modified version) (TCR, V domains shown) V domain 1: GQQLNQSPQSMFIQEGEDVSMNCTSSSIFNTWLWYKQEPGEGPVLLIALYKAGELTSNGRLTAQFGITRKDSFLNISASIPSDVGIYFCAGYSSSNDYKLSFGAGTTVTVRA V domain 2: EPEVTQTPSHQVTQMGQEVILRCVPISNHLYFYWYRQILGQKVEFLVSFYNNEISEKSEIFDDQFSVERPDGSNFTLKIRSTKLEDSAMYFCASTPRDRGKEAFFGQGTRLTVVE ): 12.3%
